Tested on: 898857-211-R-J1-PDC complex spheroids, growth % test/control
method-description: Anticancer human tumor 898857-211-R-J1-PDC patient-derived melanoma cell line growth inhibition [RAS]
experimental-context: second compound 0.1 µM; first compound 0.03 µM; stronger effect = lower value
# maps each entry to its viability, T/C

CC1(C)CCC(Nc2ncc(C(F)(F)F)c(-c3c[nH]c4c(P(C)(C)=O)c(C#N)ccc34)n2)CN1 (stereo not drawn) + C=CC(=O)N1CCN(c2nc(OCC3CCCN3C)nc3c(F)c(-c4nc(N)cc(C)c4C(F)(F)F)c(Cl)cc23)C(C)C1: 14.9%
CCc1c2c(nc3ccc(O)cc13)-c1cc3c(c(=O)n1C2)COC(=O)[C@]3(O)CC + C=CC(=O)N1CCN(c2nc(OCC3CCCN3C)nc3c(F)c(-c4nc(N)cc(C)c4C(F)(F)F)c(Cl)cc23)C(C)C1: 8.12%

Form field: reported viability, T/C of CC1(C)CCC(Nc2ncc(C(F)(F)F)c(-c3c[nH]c4c(P(C)(C)=O)c(C#N)ccc34)n2)CN1 (stereo not drawn) + C#Cc1c(F)ccc2cc(O)cc(-c3ncc4c(N5CC6CCC(C5)N6)nc(OCC56CCCN5CC(F)C6)nc4c3F)c12
26.7%

====

# maps each entry to its IC50
System: 898857-211-R-J1-PDC complex spheroids, growth % test/control
method-description: Anticancer human tumor 898857-211-R-J1-PDC cell line growth inhibition [RAS];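 further: spheroids exposed to compound for seven days before readout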
experimental-context: curve of first compound; second compound 3.16 µM

CC(=O)OC12COC1CC(O)C1(C)C(=O)C(O)C3=C(C)C(OC(=O)C(O)C(NC(=O)OC(C)(C)C)c4ccccc4)CC(O)(C(OC(=O)c4ccccc4)C21)C3(C)C (stereo not drawn) + C#Cc1c(F)ccc2cc(O)cc(-c3ncc4c(N5CC6CCC(C5)N6)nc(OCC56CCCN5CC(F)C6)nc4c3F)c12: < 31.6 nM
NC1c2ccccc2OC12CCN(c1cnc3c(N4CCCc5ncccc54)n[nH]c3n1)CC2 (stereo not drawn) + C#Cc1c(F)ccc2cc(O)cc(-c3ncc4c(N5CC6CCC(C5)N6)nc(OCC56CCCN5CC(F)C6)nc4c3F)c12: > 10000 nM

In the following, a different molecule is considered.
Form field: reported IC50 of C=CC(=O)N1CCN(c2nc(OCC3CCCN3C)nc3c(F)c(-c4nc(N)cc(C)c4C(F)(F)F)c(Cl)cc23)C(C)C1 (stereo not drawn) + C#Cc1c(F)ccc2cc(O)cc(-c3ncc4c(N5CC6CCC(C5)N6)nc(OCC56CCCN5CC(F)C6)nc4c3F)c12
> 1000 nM

====

# maps each entry to its viability, T/C
System: 898857-211-R-J1-PDC complex spheroids, growth % test/control
method-description: Anticancer human tumor 898857-211-R-J1-PDC cell line growth inhibition [RAS];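 further: spheroids exposed to compound for seven days before readout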;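 on viability, T/C: 100% = DMSO vehicle control wells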
experimental-context: second compound 0.316 µM; first compound 0.316 µM; stronger effect = lower value
Output spec: scalar in %, unitless text.

In the examples that follow, each entry is paired with its recorded viability, T/C.
CC(Nc1ccc2c(c1)OCCn1cc(N3C(=O)OCC3C(F)F)nc1-2)C(N)=O (centres undefined) + C=CC(=O)N1CCN(c2nc(OCC3CCCN3C)nc3c(F)c(-c4nc(N)cc(C)c4C(F)(F)F)c(Cl)cc23)C(C)C1: 108
CCN1CCN(Cc2ccc(Nc3ncc(F)c(-c4cc(F)c5nc(C)n(C(C)C)c5c4)n3)nc2)CC1 + C#Cc1c(F)ccc2cc(O)cc(-c3ncc4c(N5CC6CCC(C5)N6)nc(OCC56CCCN5CC(F)C6)nc4c3F)c12: 44.9
CC(=O)OC12COC1CC(O)C1(C)C(=O)C(O)C3=C(C)C(OC(=O)C(O)C(NC(=O)OC(C)(C)C)c4ccccc4)CC(O)(C(OC(=O)c4ccccc4)C21)C3(C)C (centres undefined) + C=CC(=O)N1CCN(c2nc(OCC3CCCN3C)nc3c(F)c(-c4nc(N)cc(C)c4C(F)(F)F)c(Cl)cc23)C(C)C1: 14.2

In the following, a different molecule is considered.
Form field: reported viability, T/C of NC1c2ccccc2OC12CCN(c1cnc3c(N4CCCc5ncccc54)n[nH]c3n1)CC2 (centres undefined) + C#Cc1c(F)ccc2cc(O)cc(-c3ncc4c(N5CC6CCC(C5)N6)nc(OCC56CCCN5CC(F)C6)nc4c3F)c12
94
